System: YSK4
Construct: gene MAP3K19
applied-conditions: concentration: 1 μM, replicates: in singlicate; n = 1;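 further: KINOMEscan kinase panel screen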
Assign a class from recorded %Inh; defined classes: low-valued: < 2%; mid-valued: ≥ 2% and < 20%; high-valued: ≥ 20%

molecule | measurement-target | class-assignment
Cn1ccc2ncnc(Oc3ccc(NC(=O)Nc4cccnc4)c(Cl)c3)c21 | YSK4 | low-valued
COc1cc2ncnc(Nc3ccc(OCc4ccccc4Br)c(Cl)c3)c2cc1OC.Cl | YSK4 | high-valued
CNc1nccc(-c2c(-c3ccc(F)cc3)ncn2C2CCN(C)CC2)n1 | YSK4 | mid-valued
CCCc1ccc(S(=O)(=O)NC2CCN(c3ccnc(Nc4ccc(OC)cc4)n3)C2)cc1 (centres unmarked) | YSK4 | high-valued
CC(C)(C)c1ccc(-n2cnc3c(N)ncnc32)cc1 | YSK4 | mid-valued
CC(=O)Nc1n[nH]c2ncc(-c3ccccc3)cc12 | YSK4 | high-valued
CS(=O)(=O)CCNCc1nc(-c2ccc3ncnc(Nc4ccc(OCc5cccc(F)c5)c(Cl)c4)c3c2)cs1.Cl | YSK4 | mid-valued
Cn1ccc2ncnc(Nc3ccc(Oc4cccc(Cl)c4)c(Cl)c3)c21 | YSK4 | mid-valued
Cc1cc(N2CCC(NS(=O)(=O)c3ccc(F)cc3)CC2)nc(Nc2cccc(C#N)c2)n1.O=C(O)C(F)(F)F | YSK4 | low-valued
OCCOCCn1ccc2ncnc(Nc3ccc(Oc4cccc(Cl)c4)c(Cl)c3)c21 | YSK4 | low-valued
Nc1nc(-c2ccccn2)c(-c2ccnc3ccccc23)s1 | YSK4 | mid-valued
Nc1nc(-c2ccc3c(N)n[nH]c3c2)cc(N2CCC[C@@H](C(=O)Nc3ccccc3)C2)n1.O=C(O)C(F)(F)F.O=C(O)C(F)(F)F | YSK4 | mid-valued
O=C(c1ccc(-c2cc(-c3c[nH]nc3-c3ccccn3)ccn2)cc1)N1CCCC1 | YSK4 | low-valued
O=C(Nc1n[nH]c2nc(-c3ccco3)c(Br)cc12)c1ccc(CN2CCCC2)cc1.O=C(O)[C@H](O)[C@@H](O)C(=O)O | YSK4 | high-valued
c1ccc(-c2ccc3c(-c4ccnc(Nc5ccc6c(c5)OCCO6)n4)cnn3n2)cc1 | YSK4 | low-valued

* * *

System: CAMK2D
applied-conditions: concentration: 1 μM, replicates: in singlicate; n = 1
Listing of recorded %Inh by entry.
endpoint-name: %Inh (%)

compound | reported-value
Cc1cc(N2CCC(NS(=O)(=O)c3ccc(F)cc3)CC2)nc(Nc2cccc(C#N)c2)n1.O=C(O)C(F)(F)F | 3
CCc1nc(-c2cccc(C)c2)c(-c2ccnc(NC(=O)c3ccccc3)c2)s1 | 0
COc1ccc(-c2oc3ncnc(N)c3c2-c2ccc(OC)cc2)cc1 | 3
CCn1c(-c2ccncc2)nc2cnccc21 | 0
CS(=O)(=O)CCNCc1nc(-c2ccc3ncnc(Nc4ccc(OCc5cccc(F)c5)c(Cl)c4)c3c2)cs1.Cl | 23
CC(C)(C)OC(=O)NC1CCCN(c2cc(-c3ccc4c(N)n[nH]c4c3)nc(N)n2)C1 (centres unmarked) | 16
Cn1ccc2ncnc(Nc3ccc(Oc4cccc(Cl)c4)c(Cl)c3)c21 | 5
Cl.Fc1ccccc1COc1ccc(Nc2ncnc3ccc(-c4nnc(C(F)(F)F)o4)cc23)cc1Cl | 0

* * *

Measured %Inh of individual entries
Test system: FLT3-autoinhibited
applied-conditions: concentration: 1 μM, replicates: in singlicate; n = 1
endpoint-name: %Inh

molecule | reported-value
C[C@H]1CC[C@@H](C(=O)Nc2ccccc2)CN1c1cc(-c2ccc3c(N)n[nH]c3c2)nc(N)n1 [GSK2283293] | 0%
CC(C)(C)OC(=O)NC1CCCN(c2cc(-c3ccc4c(N)n[nH]c4c3)nc(N)n2)C1 (stereo not drawn) [GSK2286096] | 0%
COC(=O)c1cccc(NC(=O)NCCNc2ccnc(Nc3ccc(F)cc3)n2)c1 [GSK1379883] | 0%
Cl.Cl.c1ccc(-c2cc3ccncc3cc2OC2CCNCC2)cc1 [GSK1122999] | 0%
CCCc1ccc(S(=O)(=O)NC2CCN(c3ccnc(Nc4ccc(OC)cc4)n3)C2)cc1 (stereo not drawn) [GSK1379737] | 0%
Cl.c1ccc(Cn2ccc3cc(Nc4ncnc5ccccc45)ccc32)cc1 [GW275568] | 11%
Clc1cccc(-c2nc(Nc3ccncc3)c3ccccc3n2)c1 [GW873004] | 0%
CC(=O)Nc1n[nH]c2ncc(-c3ccccc3)cc12 [SB-548492] | 47%
CC(C)N1CCC(n2cnc(-c3ccc(F)cc3)c2-c2ccnc(N)n2)CC1 [SB-223132] | 0%

* * *

Tested on: MET
applied-conditions: concentration: 1 μM, replicates: in singlicate; n = 1

compound | measurement-target | %Inh, %
Fc1cccc(COc2ccc(Nc3ncnc4cc[nH]c34)cc2Cl)c1 | MET | 8
Cn1ccc2ncnc(Nc3ccc(Oc4cccc(Cl)c4)c(Cl)c3)c21 | MET | 2
Nc1nc(-c2ccc3c(N)n[nH]c3c2)cc(N2CCCCC2)n1 [GSK2228768] | MET | 0
Cl.O=S(=O)(c1cccc(F)c1)c1ccc(Nc2ncnc3cc(Br)sc23)cc1Cl [GSK306886] | MET | 0
CS(=O)(=O)CCNCc1ccc(-c2ccc3ncnc(Nc4ccc(OCc5ccccc5)c(Cl)c4)c3c2)o1.Cl [GW574783] | MET | 0
Oc1ccc2ncnc(Nc3ccc(OCc4ccccc4)cc3)c2c1 [GI262866] | MET | 5
COc1ccc(NC(=O)Nc2ccc(C)c(-c3ccc(C(=O)Nc4ccncc4)cc3)c2)cc1 [GSK1398475] | MET | 0
O=C(c1ccc(-c2cc(-c3c[nH]nc3-c3ccccn3)ccn2)cc1)N1CCCC1 [GW792479] | MET | 23
O=c1cc(N2CCOCC2)nc2n(Cc3cccc(Cl)c3)ccn12 [GSK2296823] | MET | 0
COc1ccc(NC(=O)c2ccc(-c3cc(-c4nnc(C)o4)ccc3C)cc2)cc1 [GW595885] | MET | 0
Nc1nc(-c2cccnc2)c(-c2ccnc3ccccc23)s1 [GW684083] | MET | 0
Nc1nc(-c2ccccn2)c(-c2ccnc3ccccc23)s1 [GW548057] | MET | 0
N#Cc1ccc(Oc2ccc(Nc3ncnc4cc[nH]c34)cc2Cl)cc1 | MET | 11
O=C(NCCCN1CCCC1=O)c1cnc(NCc2cc(Cl)ccc2Cl)nc1NC1CCNCC1 | MET | 0
O=C(Nc1ccccc1)Nc1ccc(Oc2ccc3nccn3n2)cc1 | MET | 1
COC(=O)c1c(-c2ccccc2)c2cc(Cl)ccc2c(=O)n1Cc1ccc(S(C)(=O)=O)cc1 | MET | 0
COc1ccc(-c2nc3n(c2-c2ccncc2)CCC3)cc1 [SKF-104493] | MET | 0

* * *

Tested on: HIPK4
applied-conditions: concentration: 1 μM, replicates: in singlicate; n = 1

molecule | %Inh
Clc1cc(Nc2ncnc3cc[nH]c23)ccc1OCc1ccccn1 | 0%
COc1cc2c(Nc3cccc(NC(=O)c4ccccc4)c3)ncnc2cc1OCCCN1CCOCC1 [GSK223810] | 7%
Nc1nc(-c2cccnc2)c(-c2ccnc3ccccc23)s1 [GW684083] | 0%
FC(F)(F)c1ccc(-c2cc(-c3c[nH]nc3-c3ccccn3)ccn2)cc1 [GW599550] | 0%
CCc1nc(-c2cccc(N(C)S(=O)(=O)c3ccccc3)c2)c(-c2ccnc(Nc3ccc(N4CCN(C(C)=O)CC4)nc3)n2)s1 [GSK1645895] | 0%
COc1ccc(-c2oc3ncnc(N)c3c2-c2ccc(OC)cc2)cc1 [SB-589132] | 0%
Cl.O=S(=O)(c1cccc(F)c1)c1ccc(Nc2ncnc3cc(Br)sc23)cc1Cl [GSK306886] | 0%
Cn1ccc2ncnc(Oc3ccc(NC(=O)Nc4cccnc4)c(Cl)c3)c21 | 6%
Cl.c1ccc(Cn2ccc3cc(Nc4ncnc5ccccc45)ccc32)cc1 [GW275568] | 0%

* * *

Documented %Inh across a set of compounds
Test system: NIM1
Construct: gene MGC42105
applied-conditions: concentration: 1 μM, replicates: in singlicate; n = 1

compound | measurement-target | measure-unit | %Inh
COc1ccc(Nc2nccc(N3CCC(NC(=O)c4cccc(NC(C)=O)c4)C3)n2)cc1 (stereo not drawn) [GSK1379732] | NIM1 | % | 47
Cc1ccc(C)c(NC(=O)NCCNc2ccnc(Nc3ccc(F)cc3)n2)c1 [GSK1379878] | NIM1 | % | 0
CN1CCC(n2cnc(-c3ccc(F)cc3)c2-c2ccnc(NC3CCNCC3)n2)CC1 [SB-229482] | NIM1 | % | 54
Nc1n[nH]c2nnc(-c3ccccc3)cc12 [SB-517389] | NIM1 | % | 15
COc1cc2ncnc(Nc3ccc(OCc4ccccc4Br)c(Cl)c3)c2cc1OC.Cl [GI261590] | NIM1 | % | 22
NC(=O)c1sc(-n2cnc3ccccc32)cc1OCc1ccccc1F [GSK1024306] | NIM1 | % | 20
Clc1cc(Nc2ncnc3cc[nH]c23)ccc1OCc1ccccn1 | NIM1 | % | 35
CC(C)(C)c1ccc(-n2cnc3c(N)ncnc32)cc1 [SKF-97263] | NIM1 | % | 9
Fc1cccc(COc2ccc(Nc3ncnc4cc[nH]c34)cc2Cl)c1 | NIM1 | % | 48
